Hello, the source for this data is ChEMBL document CHEMBL4321797, in case you need it.

- experimental system: Fatty-acid amide hydrolase 1 (Homo sapiens)
- Sequence (O00519 whole entry): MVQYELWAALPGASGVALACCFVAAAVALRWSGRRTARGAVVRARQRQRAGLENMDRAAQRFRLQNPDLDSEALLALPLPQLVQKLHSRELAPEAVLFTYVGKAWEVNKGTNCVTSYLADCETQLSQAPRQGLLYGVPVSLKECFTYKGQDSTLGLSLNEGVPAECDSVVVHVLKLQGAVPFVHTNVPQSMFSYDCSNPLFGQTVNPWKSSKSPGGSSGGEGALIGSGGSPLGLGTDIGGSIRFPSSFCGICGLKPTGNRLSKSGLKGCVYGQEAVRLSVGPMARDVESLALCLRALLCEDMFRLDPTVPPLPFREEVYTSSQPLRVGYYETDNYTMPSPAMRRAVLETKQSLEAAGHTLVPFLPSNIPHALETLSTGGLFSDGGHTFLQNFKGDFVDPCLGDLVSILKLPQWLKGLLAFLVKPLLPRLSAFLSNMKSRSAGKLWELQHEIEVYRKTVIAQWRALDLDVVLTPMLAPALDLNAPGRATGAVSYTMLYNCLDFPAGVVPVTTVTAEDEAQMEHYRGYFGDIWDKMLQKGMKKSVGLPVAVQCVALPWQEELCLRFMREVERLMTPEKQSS
- protocol notes: Inhibition of FAAH (unknown origin)
measurement kind: IC50 (µM)
Form entry: value (µM) — number only.

Query for Fatty-acid amide hydrolase 1 (Homo sapiens): what IC50 does the record show for CCCCC/C=C\C/C=C\C/C=C\C/C=C\CCCC(=O)NCCc1c[nH]c2ccc(O)cc12 ? 5.6

---

- experimental system: Fatty-acid amide hydrolase 1 (Homo sapiens)
- protocol notes: Inhibition of recombinant human C-terminal FLAG-tagged FAAH expressed in HEK293T cells preincubated for 4 hrs followed by addition of FP-TAMRA probe and measured after 20 mins by SDS-PAGE based fluorescence assay
- Assay type: cell-based
measurement kind: pIC50
pIC50 (log units): -log10 of the concentration in mol/L.

Query for Fatty-acid amide hydrolase 1 (Homo sapiens): what pIC50 does the record show for CN(C(=O)n1cnc(-c2ccc[n+]([O-])c2)c1)C1CCCCC1 ? 7.31
